- Test system: rms1-10 pea mutant plants
- Assay Protocol: Pea shoot-branching assay by direct application on the bud, rms1-10
- Assay type: in vivo, Pisum sativum
- Condition Summary: rms1-10, direct application, result in words
Observation Type: Bioactivity on shoot branching inhibition (bud development)

compound_string=CC(=O)Oc1c(F)cc2c(C)cc(=O)oc2c1F experimental_value="no effect"
compound_string=CC(=O)Oc1ccc2ccc(=O)oc2c1 experimental_value="no effect"

* * *

- Assayed Target: RMS3 protein (Pisum sativum)
- Construct: GST; made in house
- Sequence (A0A109QYD3 1-267): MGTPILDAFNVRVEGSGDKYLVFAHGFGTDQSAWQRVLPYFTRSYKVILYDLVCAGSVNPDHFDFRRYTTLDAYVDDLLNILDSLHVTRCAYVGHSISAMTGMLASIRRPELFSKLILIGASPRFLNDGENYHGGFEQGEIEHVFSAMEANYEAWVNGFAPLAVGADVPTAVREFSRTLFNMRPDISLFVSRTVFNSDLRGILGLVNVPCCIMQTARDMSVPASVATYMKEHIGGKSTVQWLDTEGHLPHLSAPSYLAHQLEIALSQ
- Assay Protocol: Enzymatic assay with profluorescent probes, RMS3
- Type: biochemical
- Condition Summary: probe 10 μM, RMS3 400 nM, 25°C, result in words
Observation Type: Cleavage kinetics by RMS3

compound="CC1=C(C)C(Oc2ccc3ccc(=O)oc3c2)OC1=O (racemic) [(±)-GC155]" experimental_value="two-phase kinetic"
compound="CC1=C(C)C(Oc2ccc3nc4ccc(=O)cc-4oc3c2)OC1=O (racemic) [(±)-GC247]" experimental_value="two-phase kinetic"
